Numbers sourced from patent US12612395B2.

System: GBM0308 CSCs
Test: Dose-response killing of GBM CSCs (PI/Hoechst, Celigo cytometer)
Format: cell-based
Details: Homo sapiens, 72 h, read-out: CSCs EC50 (μM), Table 2; GBM0308 CSCs, 72 h treatment; relative EC50
MEASURE_NAME: EC50 (µM)
One number for each entry, in µM.

COc1cc(OC)c2c(c1)O[C@@]1(c3ccc(Br)cc3)[C@H](c3ccccc3)[C@@H](C(=O)NS(C)(=O)=O)[C@@H](O)[C@@]21O [(−)-19]    0.095

Now look at this entry.
Query: Given the molecule C#CCNS(=O)(=O)NC(=O)[C@H]1[C@@H](O)[C@@]2(O)c3c(OC)cc(OC)cc3O[C@@]2(c2ccc(Br)cc2)[C@@H]1c1ccccc1 [(−)-21] , what is its reported EC50?
Response: 0.016

* * *

Test system: GBM0308 CSCs
Test: Dose-response killing of GBM CSCs (PI/Hoechst, Celigo cytometer)
Format: cell-based
Conditions: Homo sapiens, read-out: CSC EC50 (μM), Table 7; cell line not given
Field 'label' (enum: yes (1) / no (0)). Set to yes (1) when EC50 is strictly under 0.8 µM; else no (0).

Reference set (2 entries):
CCN(CC)S(=O)(=O)NC(=O)[C@H]1[C@@H](O)[C@@]2(O)c3c(OC)cc(OC)cc3O[C@@]2(c2ccc(Br)cc2)[C@@H]1c1ccccc1 [ZW-12-35]    no (0)
COc1cc(OC)c2c(c1)O[C@@]1(c3ccc(Br)cc3)[C@H](c3ccccc3)[C@@H](C(=O)NS(=O)(=O)N(C)C(C)C)[C@@H](O)[C@@]21O [ZW-12-34]    no (0)

Query: Could you please tell me whether EC50 recorded for COc1cc(OC)c2c(c1)O[C@@]1(c3ccc(Cl)cc3)[C@H](c3ccccc3)[C@@H](C(=O)NS(=O)(=O)N(C)C)[C@@H](O)[C@@]21O [ZW-12-31] is less than 0.8 µM?
Response: yes (1)

Query: Note, next up: COc1cc(OC)c2c(c1)O[C@@]1(c3ccc(C(F)(F)F)cc3)[C@H](c3ccccc3)[C@@H](C(=O)NS(=O)(=O)N(C)C)[C@@H](O)[C@@]21O [ZW-12-29]
Response: no (0)

* * *

What Emax was measured for each of the following?
Tested on: GBM0308 non-CSCs
Assay: Dose-response killing of GBM non-CSCs (PI/Hoechst, Celigo cytometer)
Type: cell-based
Details: Homo sapiens, 72 h, read-out: Non-CSCs Max. observed efficacy (% dead cells), Table 2; GBM0308 non-CSCs, 72 h, highest tested concentration 10 μM
Numbers only, in %.

Completed entries (count: 3):
C#CCNS(=O)(=O)NC(=O)[C@H]1[C@@H](O)[C@@]2(O)c3c(OC)cc(OC)cc3O[C@@]2(c2ccc(Br)cc2)[C@@H]1c1ccccc1 [(−)-21]    27
COc1cc(OC)c2c(c1)O[C@@]1(c3ccc(Br)cc3)[C@H](c3ccccc3)[C@@H](C(=O)NS(C)(=O)=O)[C@@H](O)[C@@]21O [(−)-19]    20
COc1ccc([C@@]23Oc4cc(OC)cc(OC)c4[C@]2(O)[C@H](O)[C@H](C(=O)NS(C)(=O)=O)[C@H]3c2ccccc2)cc1 [(−)-15]    19

Query molecule follows.
Query: What Emax value was documented for this molecule, COc1ccc([C@@]23Oc4cc(OC)cc(OC)c4[C@]2(O)[C@H](O)[C@H](C(=O)NS(=O)(=O)N(C)C)[C@H]3c2ccccc2)cc1 [(−)-16] ?
Response: 23
